// data source = patent US4155912A

assay: in vivo; conditions: mouse, im, 40 mg/kg
PROPERTY_NAME: concentration at 0.75 h (ng/mL)
Number only, in ng/mL; omit the unit.

query: So what's the measured concentration at 0.75 h for this one? "CC1(C)S[C@@H]2[C@H](NC(=O)[C@H](N)c3ccccc3)C(=O)N2[C@H]1C(=O)O"
result: 11800

---

Catalogue of compounds with associated concentration at 10 min
test: Mouse blood levels after oral administration; type: in vivo; conditions: blood, oral, 100 mg./kg., 10 minutes after administration, read-out: Blood Level
Record the result as a number with its unit.

CC1(C)S[C@@H]2[C@H](NC(=O)[C@H](N)c3ccc(O)cc3)C(=O)N2[C@H]1C(=O)O
7100 ng/mL

Shifting focus to the compound that follows.
query: Query: concentration at 10 min; subject: CC1=C(C(=O)O)N2C(=O)C[C@H]2S1 (racemic)
result: 25100 ng/mL
